Target protein (sequence): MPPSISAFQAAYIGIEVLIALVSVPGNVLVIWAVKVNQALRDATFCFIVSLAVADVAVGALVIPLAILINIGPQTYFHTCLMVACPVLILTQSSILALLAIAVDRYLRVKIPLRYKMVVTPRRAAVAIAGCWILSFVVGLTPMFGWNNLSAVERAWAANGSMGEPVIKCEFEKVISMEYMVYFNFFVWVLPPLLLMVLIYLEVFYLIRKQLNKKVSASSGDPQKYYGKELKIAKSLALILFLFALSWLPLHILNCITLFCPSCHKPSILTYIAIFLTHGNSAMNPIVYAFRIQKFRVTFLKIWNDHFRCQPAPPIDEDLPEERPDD
Provide the recorded Ki for the entries that follow.
Give bare numbers, in nM.

Cn1c(-c2cccc(C#N)c2)nc2c(N)nc(C#CC3(O)CCCCC3)nc21 : 130
Cn1c(-c2cccc(F)c2)nc2c(N)nc(C#CC3(O)CCCCC3)nc21 : 14
Cn1c(-c2ccco2)nc2c(N)nc(C#CC3(O)CCCCC3)nc21 : 25

For each of the items listed, what is its Ki?
1. Cn1c(-c2cccc(F)c2)nc2c(N)nc(C#CC3(O)CCCCCC3)nc21
2. Cn1c(-c2cccc(F)c2)nc2c(N)nc(C#CC(C)(C)O)nc21
3. Cn1c(-c2cccc(F)c2)nc2c(N)nc(C#CC3(O)CCCC3)nc21

Outgoing:
1. 27
2. 30
3. 20

====

Target: Adenosine receptor A2b (Rattus norvegicus, UniProt P29276)
Sequence (P29276 whole entry): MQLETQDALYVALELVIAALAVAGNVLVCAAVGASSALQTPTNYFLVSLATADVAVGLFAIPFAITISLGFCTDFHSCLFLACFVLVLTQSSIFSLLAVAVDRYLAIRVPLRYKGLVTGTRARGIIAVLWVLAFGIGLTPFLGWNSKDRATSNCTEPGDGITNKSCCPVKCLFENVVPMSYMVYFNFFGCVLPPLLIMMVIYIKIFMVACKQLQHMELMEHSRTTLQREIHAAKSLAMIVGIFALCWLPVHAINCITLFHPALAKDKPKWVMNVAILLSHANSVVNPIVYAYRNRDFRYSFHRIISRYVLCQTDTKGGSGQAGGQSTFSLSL
Experiment: Inhibitory activity on N-ethylcarboxamidoadenosine (NECA)-induced glucose production in primary cultured rat hepatocytes
I'd appreciate it if you marked entries 1 when IC50 is lower than 1000 nM and 0 when it is not.

# count of solved cases: 9
Cn1c(-c2ccc(Cl)cc2)nc2c(N)nc(C#CC3(O)CCCCC3)nc21 : 0
Cn1c(-c2cccc(F)c2)nc2c(N)nc(C#CC3CCCC3)nc21 : 1
Cn1c(-c2ccccc2F)nc2c(N)nc(C#CC3(O)CCCCC3)nc21 : 1
Cn1c(-c2ccco2)nc2c(N)nc(C#CC3(O)CCCCC3)nc21 : 1
Cn1c(-c2ccc(F)cc2)nc2c(N)nc(C#CC3(O)CCCCC3)nc21 : 0
COc1ccc(-c2nc3c(N)nc(C#CC4(O)CCCCC4)nc3n2C)cc1F : 0
Cn1c(=O)c2[nH]c(-c3ccccc3)nc2n(C)c1=O [8-PHENYL THEOPHYLLINE] : 0
Cn1c(-c2cccc(F)c2)nc2c(N)nc(C#CC3(O)CCCCCC3)nc21 : 1
Cn1c(-c2cccc(F)c2)nc2c(N)nc(C#CC3(O)CCCCC3)nc21 : 1

Incoming: Please let me know if COC(=O)C1=C2C=CN(C)C=C2c2nc(-c3ccccc3)nn2C1 shows IC50 below 1000 nM.
Outgoing: 0
